The measurements presented in this section are drawn from paper PMC11597202.

- ASSAY DETAILS: In vitro cytotoxic assay, MDA-MB-468
- Format: cell-based
- SETTINGS: human, MDA-MB-468 cells (breast cancer cell line); read-out: In vitro cytotoxic activity IC50, MBA-MB4-68
OBSERVABLE: IC50 at 48 h (µM)
Lab book: enter the figure in µM, no units written.

Answered cases to consult:
- MOLECULE: "N#Cc1nc2c(ccc3c(=O)n(Cc4ccccc4)cnc32)s1 [Compound 5c]"
  IC50 at 48 h, µM: 10
- MOLECULE: "COc1cccc2c1C(=O)c1c(O)c3c(c(O)c1C2=O)C[C@@](O)(C(=O)CO)C[C@@H]3O[C@H]1C[C@H](N)[C@H](O)[C@H](C)O1 [Doxo, Doxorubicin, reference compound]"
  IC50 at 48 h, µM: 0.04
- MOLECULE: "COC(=N)c1nc2cc3ncn(Cc4ccccc4)c(=O)c3cc2s1 [Compound 6b]"
  IC50 at 48 h, µM: 1
- MOLECULE: "COC(=N)c1nc2ccc3ncnc(Nc4ccc(OC)cc4F)c3c2s1 [Compound II, reference compound]"
  IC50 at 48 h, µM: 9
- MOLECULE: "N#Cc1nc2ccc3c(=O)n(Cc4ccccc4)cnc3c2s1 [Compound 5d]"
  IC50 at 48 h, µM: 11
- MOLECULE: "COC(=N)c1nc2ccc3c(=O)n(Cc4ccccc4)cnc3c2s1 [Compound 6d]"
  IC50 at 48 h, µM: 5
- MOLECULE: "N#Cc1nc2cc3c(=O)n(Cc4ccccc4)cnc3cc2s1 [Compound 5a]"
  IC50 at 48 h, µM: 11

Qu. Query (molecule): N#Cc1nc2cc3ncn(Cc4ccccc4)c(=O)c3cc2s1 [Compound 5b] ; field requested: IC50 at 48 h
Ans. 1
